Quick reference for fold induction at 25 µM among some compounds
# Tested on: N5-12G6 riboswitch
# Assay Summary: Firefly luciferase assay, N5-12G6 riboswitch in HEK293 cells
# Stated Conditions: Homo sapiens, HEK293, read-out: Fold induction 25 μM (HEK), 12G6 riboswitch, luciferase, HEK293, 25 μM

Recorded results for 3 compounds are shown here.
CC1CNCCN1c1ccncc1NCc1ccc2nccnc2c1 (stereo not shown)    329
c1cc(OC2CCNC2)c(NCc2ccc3nccnc3c2)cn1 (stereo not shown)    286
NC1CCN(c2ccncc2NCc2ccc3nccnc3c2)CC1    7.8

Identify the reported fold induction at 25 µM for the following entry. c1cc(NC2CCNCC2)c(NCc2ccc3nccnc3c2)cn1
53.2

Given the compound c1cc(NCc2ccc3nccnc3c2)c(N2CCNCC2)cn1 , write its reported fold induction at 25 µM.
69

Identify fold induction at 25 µM associated with the compound c1cc(N2CCOCC2)c(NCc2ccc3nccnc3c2)cn1
6

Return value of fold induction at 25 µM for input c1cc(N2CC3CNCC3C2)c(NCc2ccc3nccnc3c2)cn1 (stereo not shown) , no commentary.
69.4

Give a short answer stating reported fold induction at 25 µM for c1cc(N2CCCNCC2)c(NCc2ccc3nccnc3c2)cn1 .
251

Tell me its fold induction at 25 µM given c1cc(N2C3CNCC2C3)c(NCc2ccc3nccnc3c2)cn1 as the entry.
17.9

Please give measured fold induction at 25 µM of the following entry: c1cc(N2CC3CC2CN3)c(NCc2ccc3nccnc3c2)cn1 (stereo not shown)
82.9
